Source of measurements: patent US9775844B2

# TEST PROTOCOL: Oral PK in the rat LPS studies (free plasma concentration)
# Format: in vivo
# CONDITION SET: plasma, po, p.o. 5 mg/kg, 1.5h, read-out: Free Plasma Conc

COMPOUND | RESULT UNITS | concentration at 1.5 h
CC(C)n1c([C@H](C)Nc2ncnc(N)c2C#N)cc2cccc(-c3ccc(=O)n(C)c3)c2c1=O [Compound AA, reference compound] | nM | 17.8
C[C@H](NC(=O)c1c(N)nn2cccnc12)c1cc2cccc(C#Cc3cnn(C)c3)c2c(=O)n1-c1ccccc1 | nM | 22.6

* * *

# SYSTEM UNDER TEST: PI3K-γ in RAW264.7 macrophages (Mus musculus (Mouse))
# Sequence (Q9JHG7 whole entry): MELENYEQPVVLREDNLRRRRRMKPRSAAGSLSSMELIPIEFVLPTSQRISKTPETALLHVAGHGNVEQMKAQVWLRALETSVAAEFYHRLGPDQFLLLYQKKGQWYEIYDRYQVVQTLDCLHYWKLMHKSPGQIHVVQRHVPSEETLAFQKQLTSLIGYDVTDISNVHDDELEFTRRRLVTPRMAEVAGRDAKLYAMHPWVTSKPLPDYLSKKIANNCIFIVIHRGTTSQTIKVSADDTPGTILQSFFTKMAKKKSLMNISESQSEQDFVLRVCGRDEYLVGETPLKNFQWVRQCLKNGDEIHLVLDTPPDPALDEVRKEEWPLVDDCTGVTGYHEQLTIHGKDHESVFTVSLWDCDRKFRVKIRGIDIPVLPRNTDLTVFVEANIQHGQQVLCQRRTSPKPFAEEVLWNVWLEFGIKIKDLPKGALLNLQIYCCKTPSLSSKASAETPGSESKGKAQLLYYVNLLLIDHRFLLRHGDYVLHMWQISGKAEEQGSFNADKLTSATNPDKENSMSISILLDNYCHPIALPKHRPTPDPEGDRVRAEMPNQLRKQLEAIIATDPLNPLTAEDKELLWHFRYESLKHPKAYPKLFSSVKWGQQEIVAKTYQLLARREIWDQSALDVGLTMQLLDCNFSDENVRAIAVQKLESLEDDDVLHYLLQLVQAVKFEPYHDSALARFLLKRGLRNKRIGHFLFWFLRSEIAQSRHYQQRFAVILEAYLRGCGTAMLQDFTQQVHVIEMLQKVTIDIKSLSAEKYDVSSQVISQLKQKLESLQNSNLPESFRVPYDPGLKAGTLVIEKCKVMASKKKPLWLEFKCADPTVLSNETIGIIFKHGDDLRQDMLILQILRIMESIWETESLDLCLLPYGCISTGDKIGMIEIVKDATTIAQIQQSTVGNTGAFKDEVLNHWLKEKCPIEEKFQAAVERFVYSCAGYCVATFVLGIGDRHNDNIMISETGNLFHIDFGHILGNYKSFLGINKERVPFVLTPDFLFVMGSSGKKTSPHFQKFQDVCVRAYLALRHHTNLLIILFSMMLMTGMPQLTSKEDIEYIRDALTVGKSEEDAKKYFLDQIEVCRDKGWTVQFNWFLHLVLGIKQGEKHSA
# TEST PROTOCOL: Raw264.7 p110 γ assay (PI3K-γ selective cellular assay, C5a-stimulated phospho-AKT)
# Type: cell-based
# CONDITION SET: phospho-AKT; read-out: Raw264.7 p110 γ assay IC50
// IC50 lookup, one value per entry

SMILES NOTATION | IC50
C#Cc1cccc2nc([C@H](C)NC(=O)c3nccnc3N)n(-c3ccc(F)cc3)c(=O)c12 | 1 to 50 nM
C[C@H](NC(=O)c1c(N)nn2cccnc12)c1cc2cccc(C#Cc3cnn(C)c3)c2c(=O)[nH]1 | 50 to 100 nM
Cc1cnc(C(=O)N[C@@H](C)c2cc3cccc(C#Cc4cnn(C)c4)c3c(=O)n2-c2ccccc2)c(N)n1 | 100 to 10000 nM
Cc1nc(C#Cc2cccc3nc([C@H](C)NC(=O)c4c(N)nn5cccnc45)n(-c4ccccc4)c(=O)c23)cs1 | 1 to 50 nM
Cc1ncccc1C#Cc1cccc2cc([C@H](C)NC(=O)c3c(N)nn4cccnc34)n(-c3ccccc3)c(=O)c12 | 100 to 10000 nM
C[C@H](NC(=O)c1c(N)nn2cccnc12)c1cc2cccc(C#CC3CCCCC3)c2c(=O)n1-c1ccccc1 | 100 to 10000 nM

* * *

IC50 data for PI3K α (Homo sapiens (Human)) follow.

COMPOUND | SYSTEM UNDER TEST | IC50
C[C@H](NC(=O)c1c(N)nn2cccnc12)c1cc2cccc(C#CCN(C)C)c2c(=O)n1-c1ccccc1 [Compound 57] | PI3K α (Homo sapiens (Human)) | 5 to 10 µM
Cc1ncccc1C#Cc1cccc2cc([C@H](C)NC(=O)c3c(N)nn4cccnc34)n(-c3ccccc3)c(=O)c12 [Compound 67] | PI3K α (Homo sapiens (Human)) | 5 to 10 µM
C[C@H](NC(=O)c1c(N)nn2cccnc12)c1cc2cccc(C#CC3CCCCC3)c2c(=O)n1-c1ccccc1 [Compound 65] | PI3K α (Homo sapiens (Human)) | 5 to 10 µM
Cc1ccnc2c(C(=O)N[C@@H](C)c3cc4cccc(C#Cc5cnn(C)c5)c4c(=O)n3-c3ccccc3)c(N)nn12 [Compound 102] | PI3K α (Homo sapiens (Human)) | 5 to 10 µM

* * *

# SYSTEM UNDER TEST: PI3K γ (Homo sapiens (Human), UniProt P48736)
# Sequence (P48736 whole entry): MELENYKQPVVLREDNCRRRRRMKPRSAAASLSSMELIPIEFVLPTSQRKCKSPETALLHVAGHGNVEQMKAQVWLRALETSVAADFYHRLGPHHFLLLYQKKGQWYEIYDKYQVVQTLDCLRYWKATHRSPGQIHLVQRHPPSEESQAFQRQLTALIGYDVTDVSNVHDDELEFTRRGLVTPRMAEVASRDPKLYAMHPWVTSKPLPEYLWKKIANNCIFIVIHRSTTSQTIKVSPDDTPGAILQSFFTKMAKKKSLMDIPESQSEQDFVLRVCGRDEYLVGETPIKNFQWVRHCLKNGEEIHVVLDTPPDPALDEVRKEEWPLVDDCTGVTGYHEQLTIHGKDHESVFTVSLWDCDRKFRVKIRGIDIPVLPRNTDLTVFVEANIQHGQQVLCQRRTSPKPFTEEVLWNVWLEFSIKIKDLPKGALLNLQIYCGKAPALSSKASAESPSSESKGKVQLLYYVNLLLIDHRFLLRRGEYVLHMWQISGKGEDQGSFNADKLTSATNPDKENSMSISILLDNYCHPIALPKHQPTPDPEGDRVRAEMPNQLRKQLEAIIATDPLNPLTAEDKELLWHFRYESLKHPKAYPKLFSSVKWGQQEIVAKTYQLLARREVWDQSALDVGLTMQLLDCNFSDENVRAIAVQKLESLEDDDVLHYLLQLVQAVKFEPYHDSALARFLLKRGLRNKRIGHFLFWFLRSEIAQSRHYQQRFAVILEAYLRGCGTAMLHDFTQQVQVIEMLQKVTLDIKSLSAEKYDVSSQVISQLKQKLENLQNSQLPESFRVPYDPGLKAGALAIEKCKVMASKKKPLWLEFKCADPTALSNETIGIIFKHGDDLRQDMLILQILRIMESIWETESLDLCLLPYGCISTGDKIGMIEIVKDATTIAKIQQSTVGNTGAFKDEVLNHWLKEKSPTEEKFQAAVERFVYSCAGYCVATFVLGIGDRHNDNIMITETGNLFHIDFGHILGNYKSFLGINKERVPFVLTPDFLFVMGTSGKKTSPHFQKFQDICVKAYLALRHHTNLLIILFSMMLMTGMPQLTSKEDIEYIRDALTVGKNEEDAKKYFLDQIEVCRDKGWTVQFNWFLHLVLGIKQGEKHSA
READOUT: IC50

SMILES NOTATION | SYSTEM UNDER TEST | READOUT | RESULT
CC#Cc1cccc2nc([C@H](C)NC(=O)c3c(N)nn4cccnc34)n(-c3ccccc3)c(=O)c12 | PI3K γ (Homo sapiens (Human), UniProt P48736) | IC50 | 1 to 100 nM
C[C@H](NC(=O)c1c(N)nn2cccnc12)c1cc2cccc(C#CC3CCN(C)CC3)c2c(=O)n1-c1ccccc1 | PI3K γ (Homo sapiens (Human), UniProt P48736) | IC50 | 500 to 1000 nM
C[C@H](NC(=O)c1c(N)nn2cccnc12)c1cc2cccc(C#Cc3nccs3)c2c(=O)n1-c1ccccc1 | PI3K γ (Homo sapiens (Human), UniProt P48736) | IC50 | 100 to 500 nM
C[C@H](NC(=O)c1c(N)nn2cccnc12)c1cc2cccc(C#Cc3cncs3)c2c(=O)n1-c1ccccc1 | PI3K γ (Homo sapiens (Human), UniProt P48736) | IC50 | 100 to 500 nM
Cc1nc(C#Cc2cccc3cc([C@H](C)NC(=O)c4c(N)nn5cccnc45)n(-c4ccccc4)c(=O)c23)cs1 | PI3K γ (Homo sapiens (Human), UniProt P48736) | IC50 | 1 to 100 nM
COCC#Cc1cccc2cc([C@H](C)NC(=O)c3c(N)nn4cccnc34)n(-c3ccccc3)c(=O)c12 | PI3K γ (Homo sapiens (Human), UniProt P48736) | IC50 | 1 to 100 nM
C[C@H](NC(=O)c1c(N)nn2cccnc12)c1cc2cccc(C#Cc3cnn(C)c3)c2c(=O)n1C | PI3K γ (Homo sapiens (Human), UniProt P48736) | IC50 | 100 to 500 nM
